- experimentalSystem: FGFR2 (Homo sapiens)
- Construct: made in house; host or cells: E. coli derived from BL21, infected with T7 phage
- Sequence (P21802 22-821): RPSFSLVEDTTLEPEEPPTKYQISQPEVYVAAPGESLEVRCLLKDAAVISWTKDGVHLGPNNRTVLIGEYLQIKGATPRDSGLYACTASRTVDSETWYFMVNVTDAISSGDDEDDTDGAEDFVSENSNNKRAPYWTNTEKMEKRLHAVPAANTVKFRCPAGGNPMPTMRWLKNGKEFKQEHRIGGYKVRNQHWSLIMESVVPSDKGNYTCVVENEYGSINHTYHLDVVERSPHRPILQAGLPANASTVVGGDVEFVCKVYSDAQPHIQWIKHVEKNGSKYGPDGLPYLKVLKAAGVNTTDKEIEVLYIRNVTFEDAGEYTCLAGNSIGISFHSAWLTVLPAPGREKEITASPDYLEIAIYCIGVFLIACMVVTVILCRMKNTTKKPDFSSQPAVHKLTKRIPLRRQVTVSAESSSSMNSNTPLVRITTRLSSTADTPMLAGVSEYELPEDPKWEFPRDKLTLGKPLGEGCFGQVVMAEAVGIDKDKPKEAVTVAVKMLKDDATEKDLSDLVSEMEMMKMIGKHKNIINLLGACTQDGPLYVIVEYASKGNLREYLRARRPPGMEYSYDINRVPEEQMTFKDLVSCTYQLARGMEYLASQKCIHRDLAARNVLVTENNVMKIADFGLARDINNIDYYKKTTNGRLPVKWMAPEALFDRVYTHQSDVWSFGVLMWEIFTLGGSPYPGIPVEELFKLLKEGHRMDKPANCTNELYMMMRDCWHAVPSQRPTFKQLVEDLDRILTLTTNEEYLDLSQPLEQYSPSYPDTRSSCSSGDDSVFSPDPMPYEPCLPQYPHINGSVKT
- assayInfo: Kinase binding assay (kinase-tagged T7 phage, affinity beads, qPCR readout), FGFR2
- experimentalContext: FGFR binding data
- Method: Kinase-tagged T7 phage strains were prepared in an E. coli host derived from the BL21 strain. E. coli were grown to log-phase and infected with T7 phage and incubated with shaking at 32° C. until lysis. The lysates were centrifuged and filtered to remove cell debris. […] Test compounds were prepared as 111× stocks in 100% DMSO. Kds were determined using an 11-point 3-fold compound dilution series with three DMSO control points. […] The kinase concentration in the eluates was measured by qPCR. […]
readout: Kd

Answered examples (5):
structuresmilesstring=C=CC(=O)Nc1ccc2c(-c3nc(Nc4ccnn4C)ncc3Cl)cn(C)c2c1 readout=Kd reportedmeasurement="0.1 to 100 nM"
structuresmilesstring=C=CC(=O)Nc1ccc2c(c1)c(C)cn2-c1nc(Nc2cnn(CCOC)c2)ncc1F readout=Kd reportedmeasurement="0.1 to 100 nM"
structuresmilesstring=C=CC(=O)Nc1ccc2c(c1)c(C)cn2-c1nc(Nc2cc(C)sn2)ncc1F readout=Kd reportedmeasurement="0.1 to 100 nM"
structuresmilesstring=C=CC(=O)Nc1ccc2c(-c3ccnc(Nc4cn(C)nc4C)n3)cn(C)c2c1 readout=Kd reportedmeasurement="0.1 to 100 nM"
structuresmilesstring=CCn1ccc(Nc2ncc(C)c(-n3cc(C)c4cc(NC(=O)/C=C/CN(C)C)cnc43)n2)n1 readout=Kd reportedmeasurement="100 to 250 nM"

I have this molecule here, "C=CC(=O)Nc1ccc2c(c1)c(C)cn2-c1nc(Nc2cccc(OCCN3CCOCC3)c2)ncc1C" , and I need its recorded Kd.
0.1 to 100 nM

I'd like to know its Kd. The molecule in question is "C=CC(=O)Nc1ccc2c(c1)c(C)cn2-c1nc(Nc2cn(C)cn2)ncc1Cl"
0.1 to 100 nM

Kd lookup needed for "C=CC(=O)Nc1ccc2c(-c3nc(Nc4cn(C)nc4C)ncc3F)cn(C)c2c1" , thanks.
0.1 to 100 nM

Recorded Kd for "Cc1cn(-c2nc(Nc3cnn(C[C@@H](C)O)c3)ncc2F)c2ncc(NC(=O)/C=C/CN(C)C)cc12" , please?
0.1 to 100 nM

What Kd value was documented for this molecule, "C=CC(=O)Nc1ccc2c(-c3ccnc(Nc4cnn(CC)c4)n3)cn(C)c2c1" ?
0.1 to 100 nM

Please look up its Kd: "C#CC(=O)Nc1cnc2c(c1)c(C)cn2-c1nc(Nc2cnn(CCO)c2)ncc1C"
0.1 to 100 nM
